Below, each entry is listed with its recorded Screen- Human/No Protein.
- Tested on: full length human vWF
- experimentalDetails: 3-point dot blot screen, full length human vWF
- Format: binding
- protocolConditions: 20 nM full length human vWF, ratio of fraction of aptamer bound with target protein to fraction bound without protein
Note: the reply should be a number with no unit written.

Here's what some known entries look like.
[[record]]
molecule = "AMX238.F6: DNA SELEX 2 aptamer clone (nucleic acid, DNA, backbone not given here, DNA SELEX 2 aptamer clone) DNA: CTACCTACGATCTGACTAGCGGAATGAGTATGCTGGTGGATTGCTCAGGTCTGCTGGCTGCTTACTCTCATGTAGTTCC"
result = 1.18

[[record]]
molecule = "AMX237.B12: DNA SELEX 2 aptamer clone (nucleic acid, DNA, backbone not given here, DNA SELEX 2 aptamer clone) DNA: CTACCTACGATCTGACTAGCGGAATGAGAATGCAGGTGGATTGCTCAGGTCTGCTGGCTGCTTACTCTCATGTAGTTCC"
result = 1.13

[[record]]
molecule = "AMX237.E10: DNA SELEX 2 aptamer clone (nucleic acid, DNA, backbone and methylation of C not given here, DNA SELEX 2 aptamer clone) DNA: CTACCTACGATCTGACTAGCGGAATGAGAATGCTGGTGGATTGCTCAGGTCTGCTGGCTGCTTACTCTCATGTAGTTCC"
result = 1.12

[[record]]
molecule = "AMX237.E2: DNA SELEX 2 aptamer clone (nucleic acid, DNA, backbone not given here, DNA SELEX 2 aptamer clone) DNA: CTACCTACGATCTGACTAGCTCCAGTGTTTCATCTAATAACCGTGCGGTGCCTCCGTGAGCTTACTCTCATGTAGTTCC"
result = 1.61

[[record]]
molecule = "AMX236.F8: DNA SELEX 2 aptamer clone (nucleic acid, DNA, backbone not given here, DNA SELEX 2 aptamer clone) CTACCTACGATCTGACTAGCTCCAGTGTTTTATCCAATAACCGTGCGGTGCCTCCGTGATGCTTACTCTCATGTAGTTCC"
result = 1.14


Lab note: next molecule to report on.
Give me measured Screen- Human/No Protein, please, for this molecule: AMX238.G5: DNA SELEX 2 aptamer clone (nucleic acid, DNA, backbone and methylation of C not given here, DNA SELEX 2 aptamer clone) DNA: CTACCTACGATCTGACTAGCTCCAGTGTTTTATTCAATAACCGTGCGGTGCCTCCGTGAGCTTACTCTCATGTAGTTCC
3.06
